target: cAMP and cAMP-inhibited cGMP 3',5'-cyclic phosphodiesterase 10A (Homo sapiens)
Sequence (Q9Y233 whole entry): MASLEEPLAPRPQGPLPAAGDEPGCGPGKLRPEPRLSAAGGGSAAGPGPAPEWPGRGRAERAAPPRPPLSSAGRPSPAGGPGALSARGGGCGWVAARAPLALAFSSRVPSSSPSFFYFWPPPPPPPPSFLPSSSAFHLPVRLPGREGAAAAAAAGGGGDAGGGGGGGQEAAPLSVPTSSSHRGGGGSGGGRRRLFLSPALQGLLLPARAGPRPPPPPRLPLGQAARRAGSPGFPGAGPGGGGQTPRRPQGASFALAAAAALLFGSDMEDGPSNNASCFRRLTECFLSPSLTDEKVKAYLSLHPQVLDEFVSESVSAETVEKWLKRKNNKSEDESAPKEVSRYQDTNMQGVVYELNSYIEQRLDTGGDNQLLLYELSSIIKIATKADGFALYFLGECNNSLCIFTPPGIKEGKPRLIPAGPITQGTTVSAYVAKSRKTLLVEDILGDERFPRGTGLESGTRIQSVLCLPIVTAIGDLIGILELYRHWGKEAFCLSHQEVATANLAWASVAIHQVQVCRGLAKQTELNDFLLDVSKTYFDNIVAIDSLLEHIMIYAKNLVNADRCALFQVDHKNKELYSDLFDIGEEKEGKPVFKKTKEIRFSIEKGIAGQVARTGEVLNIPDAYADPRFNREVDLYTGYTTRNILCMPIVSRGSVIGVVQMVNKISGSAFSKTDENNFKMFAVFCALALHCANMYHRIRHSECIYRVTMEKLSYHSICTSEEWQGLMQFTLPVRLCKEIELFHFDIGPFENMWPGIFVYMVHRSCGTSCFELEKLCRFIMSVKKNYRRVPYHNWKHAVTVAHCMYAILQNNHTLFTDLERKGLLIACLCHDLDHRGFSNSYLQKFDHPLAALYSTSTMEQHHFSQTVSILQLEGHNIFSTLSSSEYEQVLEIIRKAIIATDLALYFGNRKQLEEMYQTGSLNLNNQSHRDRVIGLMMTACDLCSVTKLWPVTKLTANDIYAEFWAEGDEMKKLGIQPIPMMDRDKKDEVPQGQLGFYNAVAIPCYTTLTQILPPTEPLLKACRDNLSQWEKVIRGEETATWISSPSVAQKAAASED
pIC50: −log10 of the molar value.
property name: pIC50

What does the data say about its pIC50? Entry: `C=C1CC[C@]2(C(=O)O)CC[C@]3(C)C(=CC[C@@H]4[C@@]5(C)C[C@@H](O)[C@@H](OC(=O)/C=C/c6ccc(O)cc6)C(C)(C)[C@@H]5CC[C@]43C)[C@@H]2[C@H]1C`
< 4.70

* * *

Below are IC50 values recorded for 3',5'-cyclic-AMP phosphodiesterase 4D (Homo sapiens, UniProt Q08499).

Consider the following illustrative entries.
INSERT INTO measurements (molecule, measurement_target, measurement) VALUES
  ('CC1=CC(=O)CC(C)(C)[C@]1(O)/C=C/[C@@H](C)O', '3'',5''-cyclic-AMP phosphodiesterase 4D (Homo sapiens, UniProt Q08499)', '> 20 µM'),
  ('C=C1CC[C@]2(C(=O)O)CC[C@]3(C)C(=CC[C@@H]4[C@@]5(C)C[C@@H](O)[C@@H](O)C(C)(C)[C@@H]5CC[C@]43C)[C@@H]2[C@H]1C', '3'',5''-cyclic-AMP phosphodiesterase 4D (Homo sapiens, UniProt Q08499)', '> 20 µM'),
  ('C=C1CC[C@]2(C(=O)O)CC[C@]3(C)C(=CC[C@@H]4[C@@]5(C)C[C@@H](O)[C@@H](OC(=O)/C=C\c6ccc(O)cc6)C(C)(C)[C@@H]5CC[C@]43C)[C@@H]2[C@H]1C', '3'',5''-cyclic-AMP phosphodiesterase 4D (Homo sapiens, UniProt Q08499)', '0.542 µM');

Reported IC50 for COc1cc([C@H]2c3c(cc(OC)c(O)c3OC)C[C@@H](CO)[C@@H]2CO[C@@H]2OC[C@@H](O)[C@H](O)[C@H]2O)cc(OC)c1O [LYONISIDE] : what is it?
> 20 µM

* * *

molecular target: cGMP-dependent 3',5'-cyclic phosphodiesterase (Homo sapiens, UniProt O00408)
Sequence (O00408 whole entry): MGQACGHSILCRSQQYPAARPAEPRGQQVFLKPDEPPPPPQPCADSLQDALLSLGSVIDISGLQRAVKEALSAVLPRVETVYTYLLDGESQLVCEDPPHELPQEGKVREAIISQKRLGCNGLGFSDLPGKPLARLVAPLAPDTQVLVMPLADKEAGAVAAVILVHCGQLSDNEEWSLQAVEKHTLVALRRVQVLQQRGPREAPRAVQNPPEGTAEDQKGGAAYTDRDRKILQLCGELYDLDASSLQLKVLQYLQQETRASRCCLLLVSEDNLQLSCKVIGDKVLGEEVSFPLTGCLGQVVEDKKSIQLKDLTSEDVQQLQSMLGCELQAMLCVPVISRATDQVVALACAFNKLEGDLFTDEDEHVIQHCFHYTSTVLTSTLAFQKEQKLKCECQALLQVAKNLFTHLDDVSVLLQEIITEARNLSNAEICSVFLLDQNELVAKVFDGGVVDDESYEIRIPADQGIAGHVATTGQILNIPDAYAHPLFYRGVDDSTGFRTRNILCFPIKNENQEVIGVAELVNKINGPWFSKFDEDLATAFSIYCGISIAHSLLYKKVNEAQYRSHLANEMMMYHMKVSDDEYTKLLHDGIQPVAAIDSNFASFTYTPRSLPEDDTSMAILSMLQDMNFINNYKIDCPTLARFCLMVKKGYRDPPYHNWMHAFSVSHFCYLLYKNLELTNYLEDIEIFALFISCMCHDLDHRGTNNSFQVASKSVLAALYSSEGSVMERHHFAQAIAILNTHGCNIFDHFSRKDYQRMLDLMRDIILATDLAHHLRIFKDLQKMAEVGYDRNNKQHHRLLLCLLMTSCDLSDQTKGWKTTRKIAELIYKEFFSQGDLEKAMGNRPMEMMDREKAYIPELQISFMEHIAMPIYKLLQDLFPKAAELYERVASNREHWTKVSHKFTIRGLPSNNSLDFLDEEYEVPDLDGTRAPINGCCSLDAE
property name: IC50

Could you share which IC50 value was measured for `C=C1CC[C@]2(C(=O)O)CC[C@]3(C)C(=CC[C@@H]4[C@@]5(C)C[C@@H](O)[C@@H](OC(=O)/C=C/c6ccc(O)cc6)C(C)(C)[C@@H]5CC[C@]43C)[C@@H]2[C@H]1C` ?
> 50 µM

* * *

target: High affinity cGMP-specific 3',5'-cyclic phosphodiesterase 9A (Homo sapiens, UniProt O76083)
Sequence (O76083 whole entry): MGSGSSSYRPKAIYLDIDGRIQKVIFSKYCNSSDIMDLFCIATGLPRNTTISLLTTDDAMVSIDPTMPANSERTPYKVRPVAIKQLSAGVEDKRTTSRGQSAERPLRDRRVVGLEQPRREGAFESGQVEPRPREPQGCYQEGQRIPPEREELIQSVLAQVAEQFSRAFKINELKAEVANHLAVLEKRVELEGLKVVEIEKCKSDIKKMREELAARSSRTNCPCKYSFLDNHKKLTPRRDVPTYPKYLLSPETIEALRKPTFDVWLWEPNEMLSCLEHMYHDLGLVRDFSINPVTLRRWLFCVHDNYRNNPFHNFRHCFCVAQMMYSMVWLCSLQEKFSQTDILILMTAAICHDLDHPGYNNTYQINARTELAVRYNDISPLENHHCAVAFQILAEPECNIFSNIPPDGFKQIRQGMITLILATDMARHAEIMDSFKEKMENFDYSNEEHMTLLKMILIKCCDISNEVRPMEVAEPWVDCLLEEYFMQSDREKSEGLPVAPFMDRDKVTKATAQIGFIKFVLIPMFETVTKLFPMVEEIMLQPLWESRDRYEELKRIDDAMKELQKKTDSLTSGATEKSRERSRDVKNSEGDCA
property name: IC50 (µM)
Please give a number only; it is taken to be in µM.

Could you share which IC50 value was measured for `C=C1CC[C@]2(C(=O)O)CC[C@]3(C)C(=CC[C@@H]4[C@@]5(C)C[C@@H](O)[C@@H](OC(=O)/C=C/c6ccc(O)cc6)C(C)(C)[C@@H]5CC[C@]43C)[C@@H]2[C@H]1C` ?
4.83

* * *

molecular target: Dual specificity calcium/calmodulin-dependent 3',5'-cyclic nucleotide phosphodiesterase 1B (Homo sapiens); experiment: Inhibition of PDE1B2 catalytic domain (10 to 487 residues) (unknown origin) using [3H]-cGMP/[3H]-cAMP as substrate after 15 mins by liquid scintillation counting method
Sequence (Q01064 whole entry, the tested form may be a part): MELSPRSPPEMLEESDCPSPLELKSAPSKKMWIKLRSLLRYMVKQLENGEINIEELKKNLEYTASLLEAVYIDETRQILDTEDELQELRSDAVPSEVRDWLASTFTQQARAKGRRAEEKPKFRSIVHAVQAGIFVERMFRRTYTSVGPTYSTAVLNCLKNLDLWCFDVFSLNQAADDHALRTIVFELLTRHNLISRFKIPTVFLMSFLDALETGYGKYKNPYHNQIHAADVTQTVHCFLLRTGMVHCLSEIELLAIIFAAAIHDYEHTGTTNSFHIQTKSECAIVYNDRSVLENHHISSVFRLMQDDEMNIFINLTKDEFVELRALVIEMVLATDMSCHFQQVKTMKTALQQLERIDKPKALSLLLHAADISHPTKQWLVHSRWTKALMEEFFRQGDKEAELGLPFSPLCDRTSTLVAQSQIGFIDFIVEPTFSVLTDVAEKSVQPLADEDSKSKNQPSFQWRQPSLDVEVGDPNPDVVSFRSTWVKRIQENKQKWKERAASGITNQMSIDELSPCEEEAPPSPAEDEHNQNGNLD
property name: IC50 (nM)
Answer format: numeric, nM implied, no suffix.

GET /values?readout=IC50&item= `C=C1CC[C@]2(C(=O)O)CC[C@]3(C)C(=CC[C@@H]4[C@@]5(C)C[C@@H](O)[C@@H](OC(=O)/C=C/c6ccc(O)cc6)C(C)(C)[C@@H]5CC[C@]43C)[C@@H]2[C@H]1C`
2630
